Each entry below lists one item and its recorded apparent Kd value.
System: MS2 coat protein
EXPERIMENT SUMMARY: apparent Kd, MS2 coat protein; higher = weaker binding; RNA-MaP array
TEST CONTEXT: ligand present: flavin mononucleotide; designed as: ON switch for flavin mononucleotide
Give the quantity in µM, number only.

Solved cases (3 shown):
CGUUCAGUCCAGCGGUUACAUGAGGAUCACCCAUGUUUAGAGAGAAGGGUUGGCACCAGGAUGUAACAGGAUAUCUCGCUUACG
0.0715
AGGAUCCAGGAGAAGGCAACUGUAGUUUGGCAUUGAGGAUAUCCAAAGACCCGCUAGAUAGGAGCACAUGAGGAUCACCCAUGU
0.0191
UUACAUACCUUAGGAUAUCAUCGUAGUAGGGCAAUAUAACAUGAGGAUCACCCAUGUCUCGUGCGUGAGAAGGAAGAACGUCAU
0.0278

Next:
Data request: Entry UGAGUGAAGGAGAAGGGUCUUCAGGAAAUACGGAAAUAACAUGAGGAUCACCCAUGUUCAAGCAGACAGGAUAUCCAAUGUUGG , system MS2 coat protein: what apparent Kd was measured?
Data returned: 0.0146

Every entry's value here was drawn from the EternaBench riboswitch data.
